Tested on: SW 1573
ASSAY PROTOCOL: relative viability (nuclei count vs DMSO), 5 days (fraction); higher = more cells survive
EXPERIMENTAL CONTEXT: first compound 1.265 µM
READOUT KIND: relative viability
// response body must contain only the number

Examples with their reported relative viability follow.
• COc1cc(N2CCC(C(N)=O)CC2)ccc1Nc1nc(N)c(Cl)c(Nc2ccccc2S(=O)(=O)C(C)C)n1 [HG-5-88-01] + CS(=O)(=O)CCNCc1ccc(-c2ccc3ncnc(Nc4ccc(OCc5cccc(F)c5)c(Cl)c4)c3c2)o1 [Lapatinib] (partner 2 µM) = 1.06
• COc1cc(N2CCC(C(N)=O)CC2)ccc1Nc1nc(N)c(Cl)c(Nc2ccccc2S(=O)(=O)C(C)C)n1 [HG-5-88-01] + Nc1nc2[nH]cc(CCc3ccc(C(=O)N[C@@H](CCC(=O)O)C(=O)O)cc3)c2c(=O)[nH]1 [Pemetrexed] (partner 0.2 µM) = 0.777
• Clc1ccc(Nc2nnc(Cc3ccncc3)c3ccccc23)cc1 [Vatalanib] + O=C(CCCCCCC(=O)Nc1ccccc1)NO [Vorinostat] (partner 1 µM) = 0.839
• COc1cc(N2CCC(C(N)=O)CC2)ccc1Nc1nc(N)c(Cl)c(Nc2ccccc2S(=O)(=O)C(C)C)n1 [HG-5-88-01] + C[C@@H](Oc1cc(-c2cnn(C3CCNCC3)c2)cnc1N)c1c(Cl)ccc(F)c1Cl [Crizotinib] (partner 1 µM) = 0.568
• Clc1ccc(Nc2nnc(Cc3ccncc3)c3ccccc23)cc1 [Vatalanib] + CS(=O)(=O)N1CCN(Cc2cc3nc(-c4cccc5[nH]ncc45)nc(N4CCOCC4)c3s2)CC1 [Pictilisib] (partner 1 µM) = 0.408

# relative viability of Clc1ccc(Nc2nnc(Cc3ccncc3)c3ccccc23)cc1 [Vatalanib] + N=C(N)NC(=N)NCCc1ccccc1 [Phenformin] (partner 250 µM) = 0.324

For this compound ( COc1cc(N2CCC(C(N)=O)CC2)ccc1Nc1nc(N)c(Cl)c(Nc2ccccc2S(=O)(=O)C(C)C)n1 [HG-5-88-01] + CC(=O)c1c(C)c2cnc(Nc3ccc(N4CCNCC4)cn3)nc2n(C2CCCC2)c1=O [Palbociclib] (partner 0.5 µM) ), measured relative viability is 0.257

Entry Clc1ccc(Nc2nnc(Cc3ccncc3)c3ccccc23)cc1 [Vatalanib] + CC(C)C[C@H](NC(=O)[C@H](Cc1ccccc1)NC(=O)c1cnccn1)B(O)O [Bortezomib] (partner 0.002 µM) , relative viability reported as 0.972

Entry COc1cc(N2CCC(C(N)=O)CC2)ccc1Nc1nc(N)c(Cl)c(Nc2ccccc2S(=O)(=O)C(C)C)n1 [HG-5-88-01] + N=C(N)NC(=N)NCCc1ccccc1 [Phenformin] (partner 250 µM) — recorded relative viability = 0.229

----------
System: HARA
ASSAY PROTOCOL: relative viability (nuclei count vs DMSO), 5 days (fraction); higher = more cells survive
EXPERIMENTAL CONTEXT: first compound 0.08 µM
Response field label takes condition met when relative viability is strictly below 0.5 and condition not met in all other cases.

- CCCCCCCCCCCC1=C(O)C(=O)C=C(O)C1=O [Embelin] + O=C(c1cc(Cc2n[nH]c(=O)c3ccccc23)ccc1F)N1CCN(C(=O)C2CC2)CC1 [Olaparib] (partner 8 µM): condition not met
- CCCCCCCCCCCC1=C(O)C(=O)C=C(O)C1=O [Embelin] + CCNC(=O)c1noc(-c2cc(C(C)C)c(O)cc2O)c1-c1ccc(CN2CCOCC2)cc1 [Luminespib] (partner 0.01 µM): condition not met
- CCCCCCCCCCCC1=C(O)C(=O)C=C(O)C1=O [Embelin] + NC(=O)Nc1cc(-c2cccc(F)c2)sc1C(=O)N[C@H]1CCCNC1 [AZD7762] (partner 0.2 µM): condition met

Incoming: Identify whether the compound CCCCCCCCCCCC1=C(O)C(=O)C=C(O)C1=O [Embelin] + O=C(CCCCCCC(=O)Nc1ccccc1)NO [Vorinostat] (partner 1 µM) records relative viability below 0.5.
Outgoing: condition not met

Incoming: relative viability under 0.5? Item: CCCCCCCCCCCC1=C(O)C(=O)C=C(O)C1=O [Embelin] + CC(=O)c1c(C)c2cnc(Nc3ccc(N4CCNCC4)cn3)nc2n(C2CCCC2)c1=O [Palbociclib] (partner 0.5 µM)
Outgoing: condition met

Incoming: Below 0.5 on relative viability? Entry CCCCCCCCCCCC1=C(O)C(=O)C=C(O)C1=O [Embelin] + C[C@]1(O)C[C@@H](c2nc(-c3ccc4ccc(-c5ccccc5)nc4c3)c3c(N)nccn32)C1 [Linsitinib] (partner 1 µM)
Outgoing: condition not met
